Listing: TGI of selected compounds
system: BT-549 breast; assay: NCI tumour cell line growth inhibition, 48 h
Please state the figure in µM; there is no need to write the unit.

Quick one: TGI for CC(C)C(=O)c1c(C(F)(F)F)n([O-])c2cc(F)c(F)cc2[n+]1=O ? 1.9

Endpoint output: TGI of Cc1c(N)nc(C(CC(N)=O)NCC(N)C(N)=O)nc1C(=O)NC(C(=O)NC(C)C(O)C(C)C(=O)NC(C(=O)NCCc1nc(-c2nc(C(=O)NCCCNC(C)c3ccccc3)cs2)cs1)C(C)O)C(OC1OC(CO)C(O)C(O)C1OC1OC(CO)C(O)C(OC(N)=O)C1O)c1cnc[nH]1 (stereo not given) . Value? 50

TGI for CC(=O)O[C@H]1C(=O)[C@@]2(C)[C@H]([C@H](OC(=O)c3ccccc3)[C@]3(O)C[C@H](OC(=O)[C@H](O)[C@@H](NC(=O)c4ccccc4)c4cccc(N(C)C)c4)C(C)=C1C3(C)C)[C@]1(OC(C)=O)CO[C@@H]1C[C@@H]2O ? 3.51

Pending compound:
// lookup TGI for COC(=O)[C@]1(c2cc3ccccc3[nH]2)CC2CN(C(=O)OCc3ccccc3)C1CC2=O (stereo not given in full) 95.5

----------
system: SNB-75 CNS; experiment: NCI tumour cell line growth inhibition, 48 h
metric: log10 of TGI (log10 of the value in µM)
The base-10 logarithm of TGI, taken with TGI in µM, is what appears here.

// lookup log10 of TGI for O=C(C#Cc1ccccc1)C1=Cc2ccccc2OC1 1.12

Field request: log10 of TGI | item: NCCNC(=O)c1cccc2cc3ccccc3nc12 1.44

Look up log10 of TGI: Cc1[nH]c2ccccc2c1/C=N/NC(=O)c1cccc(I)c1 1.74

Next:
Which log10 of TGI is reported for this compound? C=CC(C)C1(CCCOCc2ccccc2)C(=S)N2CCC3(CC24CCCC14)OCCO3 (stereo not given) 0.76

Name the reported log10 of TGI value associated with the compound COC(=O)CNC(=O)CCC(C)[C@H]1CCC2C3C(C[C@H](OC(C)=O)[C@@]21C)[C@@]1(C)CCC2(C[C@H]1C[C@H]3OC(C)=O)OOC1(CC[C@]3(C)C4C[C@H](OC(C)=O)[C@@]5(C)C(CC[C@@H]5C(C)CCC(=O)NCC(=O)OC)C4[C@H](OC(C)=O)C[C@@H]3C1)OO2 (stereo not given in full) 0.71

Which log10 of TGI is listed for CCCCCCCCCCCCCCCCCCNC(=S)/N=C/c1c(O)c2ccccc2[nH]c1=O ? 1.45

Entry COC(=O)[C@]1(c2ccc(N(C)C)cc2OC)C[C@@H]2CCCN(CCc3c1[nH]c1ccccc31)C2 has what log10 of TGI? 1.35

# log10 of TGI lookup, item O=C(N/N=C\c1cccc2ccccc12)Nc1cccc2ccccc12 1.55

----------
// values below are reported TGI
tested on: SF-539 CNS; experiment: NCI tumour cell line growth inhibition, 48 h

In the examples that follow, each entry is paired with its recorded TGI.
Reported TGI, molecule Cc1ccc(-c2cc[n+]3c(n2)oc2ccccc23)cc1 : ____ 58.6 µM

Need TGI, item COC1=C(C)C(=O)C2=C(C1=O)C1C3CC4=C(C(=O)C(OC)=C(C)C4=O)C(CNC(=O)C(C)O)N3C(C#N)C(C2)N1C (stereo not drawn) < 0.0117 µM

Okay, now this molecule:
Quick one: TGI of CC(C)(C)NC(=O)/C(=C\Sc1ccccc1)c1ccccc1 ? > 100 µM
